# Tested on: narkotisierten Ratten (Stamm: Spraque Dawley)
# experimental_protocol: Hypotensive effect: blood pressure lowering in urethane-anaesthetised rats
# Assay type: in vivo, Ratte
# assay_conditions: Table 2; ratio of mouse p.o. ED 50 % to rat i.v. ED 20 %
Use yes (1) when the recorded Q (ED 50 % Motilitätshemmung / ED 20 % Blutdrucksenkung) is no lower than 300; use no (0) when it is lower.

compound: COc1ccccc1N1CCN(CC(O)COc2cccc3c2CCC3=O)CC1 (racemic)
measured_on: narkotisierten Ratten (Stamm: Spraque Dawley)
class_label: yes (1)

compound: COc1ccccc1N1CCN(CC(O)COc2cccc3c2C(=O)CC3)CC1 (racemic)
measured_on: narkotisierten Ratten (Stamm: Spraque Dawley)
class_label: yes (1)

compound: O=C1CCc2cccc(OCC(O)CN3CCN(c4ccccc4Cl)CC3)c21 (racemic)
measured_on: narkotisierten Ratten (Stamm: Spraque Dawley)
class_label: yes (1)

compound: CN(C)CCCN1c2ccccc2Sc2ccc(Cl)cc21 [Chlorpromazin, reference compound]
measured_on: narkotisierten Ratten (Stamm: Spraque Dawley)
class_label: no (0)

compound: COc1ccccc1N1CCN(CC(O)COc2ccc3c(c2)CCC3=O)CC1 (racemic)
measured_on: narkotisierten Ratten (Stamm: Spraque Dawley)
class_label: no (0)

---

# Test system: weiblichen NMRI-Mäusen
# experimental_protocol: Sedative effect: inhibition of orientation hypermotility induced by a new environment, photoelectric measurement
# Type: in vivo, Maus
# assay_conditions: Mus musculus, po, 0.5 h; Table 2; Maus, Applikation: per os.; read-out: Motilitätshemmung ED 50 %

compound: Cc1ccccc1N1CCN(CC(O)COc2cccc3c2CCC3=O)CC1 (racemic)
ED50 (mg/kg): 46.4

compound: COc1ccccc1N1CCN(CC(O)COc2cccc3c2CCC3=O)CC1 (racemic)
ED50 (mg/kg): 11

compound: COc1ccccc1N1CCN(CC(O)COc2ccc3c(c2)CCC3=O)CC1 (racemic)
ED50 (mg/kg): 13.2

compound: COc1ccccc1N1CCN(CC(O)COc2cccc3c2C(=O)CC3)CC1 (racemic)
ED50 (mg/kg): 19

compound: O=C1CCc2cccc(OCC(O)CN3CCN(c4ccccc4Cl)CC3)c21 (racemic)
ED50 (mg/kg): 42.4

---

# Test system: narkotisierten Ratten (Stamm: Spraque Dawley)
# experimental_protocol: Hypotensive effect: blood pressure lowering in urethane-anaesthetised rats
# Type: in vivo, Ratte
# assay_conditions: Table 2; Ratte, Urethan-Narkose, i.v.; Chlorpromazin = 1,00
endpoint_name: Blutdrucksenkung ED 20 % R.W. (Relative Wirksamkeit: Chlorpromazin = 1,00)

compound: COc1ccccc1N1CCN(CC(O)COc2cccc3c2CCC3=O)CC1 (racemic)
measured_on: narkotisierten Ratten (Stamm: Spraque Dawley)
result: 0,89
//
compound: COc1ccccc1N1CCN(CC(O)COc2ccc3c(c2)CCC3=O)CC1 (racemic)
measured_on: narkotisierten Ratten (Stamm: Spraque Dawley)
result: 0,36
//
compound: O=C1CCc2cccc(OCC(O)CN3CCN(c4ccccc4Cl)CC3)c21 (racemic)
measured_on: narkotisierten Ratten (Stamm: Spraque Dawley)
result: 2,50
//
compound: COc1ccccc1N1CCN(CC(O)COc2cccc3c2C(=O)CC3)CC1 (racemic)
measured_on: narkotisierten Ratten (Stamm: Spraque Dawley)
result: 0,46
//
compound: Cc1ccccc1N1CCN(CC(O)COc2cccc3c2CCC3=O)CC1 (racemic)
measured_on: narkotisierten Ratten (Stamm: Spraque Dawley)
result: 0,16
//
compound: CN(C)CCCN1c2ccccc2Sc2ccc(Cl)cc21 [Chlorpromazin, reference compound]
measured_on: narkotisierten Ratten (Stamm: Spraque Dawley)
result: 1,00

---

# System: weiblichen NMRI-Mäusen
# experimental_protocol: Sedative effect: inhibition of orientation hypermotility induced by a new environment, photoelectric measurement
# Type: in vivo, Maus
# assay_conditions: Mus musculus, po, 0.5 h; Table 1; Maus, Applikation: per. os.; measured 30 min after application for 30 min; read-out: Motilitätshemmung ED 50 %
endpoint_name: ED50 (mg/kg)

compound: COc1cccc(N2CCN(CC(O)COc3cccc4c3CCC4=O)CC2)c1 (racemic)
measured_on: weiblichen NMRI-Mäusen
endpoint_name: ED50
recorded_number: 9.44
--
compound: CN(C)CCCN1c2ccccc2Sc2ccc(Cl)cc21 [Chlorpromazin, reference compound]
measured_on: weiblichen NMRI-Mäusen
endpoint_name: ED50
recorded_number: 2.11
--
compound: O=C1CCc2cccc(OCCCN3CCN(c4ccc(F)cc4)CC3)c21
measured_on: weiblichen NMRI-Mäusen
endpoint_name: ED50
recorded_number: 5.03
--
compound: COc1ccc(N2CCN(CC(O)COc3ccc4c(c3)CCC4=O)CC2)cc1 (racemic)
measured_on: weiblichen NMRI-Mäusen
endpoint_name: ED50
recorded_number: 5.76
--
compound: O=C1CCc2c(OCC(O)CN3CCN(c4ccc(F)cc4)CC3)cccc21 (racemic)
measured_on: weiblichen NMRI-Mäusen
endpoint_name: ED50
recorded_number: 3.05
--
compound: O=C1CCc2c(OCCCN3CCN(c4ccc(F)cc4)CC3)cccc21
measured_on: weiblichen NMRI-Mäusen
endpoint_name: ED50
recorded_number: 3.56
